Origin of measurements: ChEMBL document CHEMBL3091456

Target: cGMP-inhibited 3',5'-cyclic phosphodiesterase 3B (Homo sapiens)
Sequence (Q13370 whole entry): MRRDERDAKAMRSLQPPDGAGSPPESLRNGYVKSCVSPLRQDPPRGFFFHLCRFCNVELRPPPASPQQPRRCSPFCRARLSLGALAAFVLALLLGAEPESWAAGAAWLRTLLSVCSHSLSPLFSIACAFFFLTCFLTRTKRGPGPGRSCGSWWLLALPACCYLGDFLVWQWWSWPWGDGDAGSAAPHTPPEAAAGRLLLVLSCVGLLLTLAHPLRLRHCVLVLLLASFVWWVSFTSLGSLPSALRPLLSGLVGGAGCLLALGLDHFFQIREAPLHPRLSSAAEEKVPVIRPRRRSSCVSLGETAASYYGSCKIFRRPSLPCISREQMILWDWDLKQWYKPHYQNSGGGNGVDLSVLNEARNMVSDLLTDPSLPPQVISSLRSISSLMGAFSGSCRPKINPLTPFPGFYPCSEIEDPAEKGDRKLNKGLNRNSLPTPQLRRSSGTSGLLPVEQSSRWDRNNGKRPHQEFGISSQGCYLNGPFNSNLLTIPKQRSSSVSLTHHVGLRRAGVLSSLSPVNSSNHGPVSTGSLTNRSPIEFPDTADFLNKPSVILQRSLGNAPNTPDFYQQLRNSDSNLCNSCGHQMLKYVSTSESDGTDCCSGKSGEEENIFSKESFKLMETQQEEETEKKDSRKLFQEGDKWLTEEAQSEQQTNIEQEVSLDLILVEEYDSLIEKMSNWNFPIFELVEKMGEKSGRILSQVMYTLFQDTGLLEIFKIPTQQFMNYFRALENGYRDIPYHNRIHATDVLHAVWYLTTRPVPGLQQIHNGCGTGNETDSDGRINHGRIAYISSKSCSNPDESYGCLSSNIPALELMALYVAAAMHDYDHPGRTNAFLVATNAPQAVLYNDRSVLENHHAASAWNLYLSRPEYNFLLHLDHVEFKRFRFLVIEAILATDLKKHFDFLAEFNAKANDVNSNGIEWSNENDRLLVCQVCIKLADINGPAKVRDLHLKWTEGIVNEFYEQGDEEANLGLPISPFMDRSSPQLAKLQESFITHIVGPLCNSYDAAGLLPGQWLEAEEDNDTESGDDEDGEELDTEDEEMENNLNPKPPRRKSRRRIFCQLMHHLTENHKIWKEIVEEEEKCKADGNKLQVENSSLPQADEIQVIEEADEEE
Experiment: Inhibition of PDE3B (unknown origin)
observed-property: IC50 (µM)
Numeric only. Scale: µM

Quick one: IC50 of N#Cc1ccc(N2CCN(Cc3cn4cc(Cl)ccc4n3)CC2)nc1 ?
24

---

Listed molecules paired with reported EC50
Target: G-protein coupled receptor 39 (Homo sapiens)
Sequence (O43194 whole entry): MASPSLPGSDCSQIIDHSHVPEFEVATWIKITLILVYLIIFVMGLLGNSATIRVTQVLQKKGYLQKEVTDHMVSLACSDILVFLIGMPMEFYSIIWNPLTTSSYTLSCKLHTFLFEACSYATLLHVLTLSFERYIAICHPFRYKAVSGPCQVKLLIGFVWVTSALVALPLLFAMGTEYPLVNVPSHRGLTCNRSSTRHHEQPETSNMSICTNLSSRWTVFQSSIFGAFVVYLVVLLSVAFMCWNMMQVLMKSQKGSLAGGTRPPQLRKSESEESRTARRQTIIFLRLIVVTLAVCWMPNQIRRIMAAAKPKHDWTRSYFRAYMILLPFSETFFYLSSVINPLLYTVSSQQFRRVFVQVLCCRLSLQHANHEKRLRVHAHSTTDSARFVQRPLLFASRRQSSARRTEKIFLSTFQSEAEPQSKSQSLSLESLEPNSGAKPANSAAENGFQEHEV
Experiment: Agonist activity at recombinant human GPR39 expressed in CHO-K1 cells assessed as increase of Zn2+-induced intracellular Ca+2 mobilization after 1 hr by Fluo-4 No staining-based FLIPR assay
Assay type: cell-based
Numeric only. Scale: nM

Below, each entry is followed by its recorded EC50 result.
N#Cc1ccc(N2CCN(Cc3cn4cc(Cl)ccc4n3)CC2)nc1 = 56
COc1cccc([C@@H]2CCN(CCc3ccccc3)C[C@H]2C(=O)NCCc2ccccn2)c1 (racemic) = 3100
CCc1ncc(CN2C[C@H](C(=O)NCc3ccccc3Cl)[C@@H](c3cccnc3)C2)[nH]1 = 320

Okay, now this molecule:
Quick one: EC50 of CCc1ncc(CN2C[C@@H](C(=O)NCc3ccccc3Cl)[C@H](c3cccnc3)C2)[nH]1 ?
190
